testTarget: 3',5'-cyclic-AMP phosphodiesterase 4B (Homo sapiens, UniProt Q07343)
Sequence (Q07343 whole entry): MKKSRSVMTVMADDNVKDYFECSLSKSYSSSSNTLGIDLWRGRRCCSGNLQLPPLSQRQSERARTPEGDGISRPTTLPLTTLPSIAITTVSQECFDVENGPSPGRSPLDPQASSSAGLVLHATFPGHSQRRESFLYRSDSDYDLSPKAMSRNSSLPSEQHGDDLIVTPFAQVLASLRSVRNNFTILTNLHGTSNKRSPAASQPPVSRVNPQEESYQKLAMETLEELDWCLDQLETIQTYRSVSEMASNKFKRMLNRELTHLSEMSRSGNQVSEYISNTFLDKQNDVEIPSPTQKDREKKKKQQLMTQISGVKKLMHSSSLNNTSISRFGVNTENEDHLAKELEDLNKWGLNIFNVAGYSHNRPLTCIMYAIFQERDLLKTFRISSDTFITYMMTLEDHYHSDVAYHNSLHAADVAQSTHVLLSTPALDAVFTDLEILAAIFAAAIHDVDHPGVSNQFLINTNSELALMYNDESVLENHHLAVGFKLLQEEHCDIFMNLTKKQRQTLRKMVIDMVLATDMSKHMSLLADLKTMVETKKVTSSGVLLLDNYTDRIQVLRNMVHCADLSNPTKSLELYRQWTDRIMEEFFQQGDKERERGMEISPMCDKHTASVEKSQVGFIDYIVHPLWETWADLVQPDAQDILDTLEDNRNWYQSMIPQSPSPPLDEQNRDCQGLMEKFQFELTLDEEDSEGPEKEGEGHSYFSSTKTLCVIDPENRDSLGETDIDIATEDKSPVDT
experimentSummary: Inhibitory activity against recombinant phosphodiesterase 4B (PDE4B) of human mononuclear lymphocytes
readoutKind: IC50 (µM)

Solved cases below.
1) COc1ccc(C(C)(C)Cn2ccnc2O)cc1OC1CCCC1 | 0.367
2) Oc1nccn1CC1(c2ccc(OC(F)F)c(OC3CCCC3)c2)CC1 | 0.0392
3) COc1ccc(C(F)Cn2ccnc2O)cc1OC1Cc2ccccc2C1 (stereo unspecified) | 0.0243

1: CC(Cn1ccnc1NC#N)c1ccc(OC(F)F)c(OCCCCCc2ccccc2)c1 (stereo unspecified)
2: COc1ccc(C(=O)Cn2ccnc2O)cc1OC1CCCC1
3: COc1ccc(C(C)C(C)n2ccnc2O)cc1OC1CCCC1 (stereo unspecified)
Task: Order the entries by their reported IC50, beginning at the minimum. Enter labels, ranked according to the request.
Result: 1, 3, 2
(1: 0.0284 µM, 3: 0.277 µM, 2: 0.486 µM)

* * *

testTarget: 3',5'-cyclic-AMP phosphodiesterase 4B (Homo sapiens, UniProt Q07343)
experimentSummary: Inhibitory activity against recombinant phosphodiesterase 4B (PDE4B) of human mononuclear lymphocytes
readoutKind: IC50

Task: Would you please give the reported IC50 of CC(Cn1ccnc1O)c1ccc(OC(F)F)c(OC2CCCC2)c1 (stereo not drawn) with 3',5'-cyclic-AMP phosphodiesterase 4B (Homo sapiens, UniProt Q07343)?
Result: < 0.01 µM

Task: Tell me IC50 of CC(Cn1ccnc1O)c1ccc(OC(F)(F)F)c(OC2CCCC2)c1 (stereo not drawn) when tested on 3',5'-cyclic-AMP phosphodiesterase 4B (Homo sapiens, UniProt Q07343).
Result: > 1 µM

Task: Jot down IC50 (3',5'-cyclic-AMP phosphodiesterase 4B (Homo sapiens, UniProt Q07343)) of COc1ccc(C(C)(O)Cn2ccnc2O)cc1OC1CCOC1 (stereo not drawn) .
Result: > 1 µM
